From: patent US10517889B2

# test-protocol: Hematology assays after oral gavage in CD-1 mice (Example 7)
# Type: in vivo
# condition-info: 500 mg/kg oral gavage once daily for 4 weeks
# Description: Groups of 7-8 week old male CD-1 mice were given an oral gavage dose once daily for 4 weeks of 500 mg/kg of Ionis SMAD7 oligonucleotides. Each group contained 8 mice. One group of male CD-1 mice was administered saline by oral gavage daily. Blood obtained from all mouse groups was measured by an ADVIA2120i hematology analyzer (Siemens, USA) for measurements of the various blood cells, as well as other hematology markers. […]
I'd be grateful if you could share measured WBC for these entries.

query: Which WBC is listed for 830025 (antisense TTTGTAAATCGAAAGC; 3-10-3 cEt gapmer, further chemistry not given here) [compound 830025] ?
result: 4.7 10^3/μL

query: What value of WBC has been recorded for this entry: 798781 (CGTAAGATTCACAGCA; 3-10-3 cEt gapmer, further chemistry not given here) [compound 798781]
result: 5.7 10^3/μL

query: I'd like to know its WBC. The substance in question is 790615 (CCAATGAGAATGCTTC; 3-10-3 cEt gapmer, further chemistry not given here) [compound 790615]
result: 5.4 10^3/μL

query: Looking for the measured WBC of 829994 (GGAGGCAGGGCCGCGA; 3-10-3 cEt gapmer, further chemistry not given here) [compound 829994] , can you help?
result: 4.1 10^3/μL

query: Given the entry 830037 (antisense CTATTGGCTGATCTGG; 3-10-3 cEt gapmer, further chemistry not given here) [compound 830037] , report its measured WBC.
result: 4.3 10^3/μL

query: Which WBC is listed for 830121 (AGAATCAAGCCCTGGC; 3-10-3 cEt gapmer, further chemistry not given here) [compound 830121] ?
result: 4.1 10^3/μL

====

Task for the reader: assign each of the following substances its reported % inhibition of SMAD7 mRNA expression.
# System: human SMAD7 mRNA
# test-protocol: Dose-dependent inhibition of human SMAD7 mRNA expression in Hep3B cells (Example 3, Study 1 and 2)
# Assay type: cell-based
# condition-info: 5000.0 nM, electroporation, approximately 16 hours, Study 1
Strand notation (5' to 3'): a small letter for the sugar, then the base; units joined by * are phosphorothioate-linked, units joined directly phosphodiester-linked; [ ] holds rarer units or linkages, { } end groups; capitals alone tell only the bases. e = 2'-O-(2-methoxyethyl) (MOE); [5mC] = 5-methylcytosine; d = 2'-deoxy (DNA)
The response must be a number in % with no trailing unit.

query: Quick one: % inhibition of SMAD7 mRNA expression for 771399 (antisense eG*e[5mC]*e[5mC]*e[5mC]*eG*dG*dG*d[5mC]*dA*dG*dG*dA*dG*d[5mC]*dG*eG*e[5mC]*eG*eG*e[5mC]) [compound 771399] ?
result: 26

query: Form field: reported % inhibition of SMAD7 mRNA expression of 771552 (antisense e[5mC]*eT*eT*eG*eG*dA*dT*dT*dT*d[5mC]*dT*dG*d[5mC]*dT*dT*e[5mC]*e[5mC]*e[5mC]*e[5mC]*eT) [compound 771552]
result: 20

query: Consider the substance 771414 (eT*e[5mC]*eG*eG*e[5mC]*dT*dG*dT*d[5mC]*d[5mC]*dG*dT*d[5mC]*dG*d[5mC]*e[5mC]*e[5mC]*e[5mC]*eT*eT; antisense) [compound 771414] and give its measured % inhibition of SMAD7 mRNA expression.
result: 43

query: Returns the measured % inhibition of SMAD7 mRNA expression for the input substance. Input: 771773 (antisense eT*e[5mC]*eT*eT*eT*dT*d[5mC]*dG*d[5mC]*dA*dT*d[5mC]*d[5mC]*dT*d[5mC]*eA*eG*eG*eA*eA) [compound 771773]
result: 0

query: What value of % inhibition of SMAD7 mRNA expression has been recorded for this entry: 771556 (antisense e[5mC]*e[5mC]*e[5mC]*eT*eT*d[5mC]*dA*dT*dA*d[5mC]*dA*d[5mC]*dT*dG*dT*eG*eT*eT*eT*eG) [compound 771556]
result: 9

query: Field request: % inhibition of SMAD7 mRNA expression | item: 771836 (antisense eT*eG*eT*eT*eG*dA*dG*dG*dA*d[5mC]*dT*d[5mC]*d[5mC]*d[5mC]*d[5mC]*eA*eG*e[5mC]*e[5mC]*eA) [compound 771836]
result: 22

query: Give the measured % inhibition of SMAD7 mRNA expression of 771461 (antisense eG*eT*eA*eG*eA*dG*d[5mC]*d[5mC]*dT*d[5mC]*d[5mC]*d[5mC]*d[5mC]*dA*d[5mC]*eT*e[5mC]*eT*e[5mC]*eG) [compound 771461] .
result: 11

query: Tell me the measured % inhibition of SMAD7 mRNA expression of 771670 (antisense eA*eG*eT*e[5mC]*e[5mC]*dT*dT*dT*d[5mC]*dT*d[5mC]*dT*d[5mC]*dT*d[5mC]*eA*eA*eA*eG*e[5mC]) [compound 771670] , please.
result: 21

query: For the substance 771825 (antisense e[5mC]*eT*e[5mC]*eT*e[5mC]*dA*dT*dT*dT*d[5mC]*dT*dG*dG*dA*dA*e[5mC]*e[5mC]*e[5mC]*eA*e[5mC]) [compound 771825] , what % inhibition of SMAD7 mRNA expression is on record?
result: 17

query: Please report the recorded % inhibition of SMAD7 mRNA expression for 771770 (antisense e[5mC]*eT*eG*eT*eT*dG*dG*d[5mC]*dA*dG*dT*dG*d[5mC]*dT*d[5mC]*e[5mC]*e[5mC]*eA*e[5mC]*e[5mC]) [compound 771770] .
result: 27

query: Given the substance 771705 (antisense eA*eA*eT*eG*e[5mC]*d[5mC]*d[5mC]*dT*dT*dT*dG*dA*dG*dT*dT*eT*e[5mC]*e[5mC]*e[5mC]*e[5mC]) [compound 771705] , what is its reported % inhibition of SMAD7 mRNA expression?
result: 0

query: I would be grateful if you could share the reported % inhibition of SMAD7 mRNA expression for 771808 (antisense e[5mC]*e[5mC]*e[5mC]*e[5mC]*eA*dA*dA*dG*dT*d[5mC]*d[5mC]*dA*d[5mC]*dG*d[5mC]*eT*e[5mC]*eA*eT*eG) [compound 771808] .
result: 23

query: Sample 771572 (antisense e[5mC]*eT*eT*eG*eG*dG*dA*d[5mC]*dT*dG*d[5mC]*dA*dA*dA*d[5mC]*e[5mC]*eT*e[5mC]*eT*e[5mC]) [compound 771572] — what was its % inhibition of SMAD7 mRNA expression?
result: 38

query: What value of % inhibition of SMAD7 mRNA expression has been reported for the following substance? 771418 (e[5mC]*e[5mC]*eG*e[5mC]*e[5mC]*dA*d[5mC]*d[5mC]*dG*dG*d[5mC]*d[5mC]*d[5mC]*d[5mC]*dA*eT*eG*e[5mC]*eG*e[5mC]; antisense) [compound 771418]
result: 0

query: Using the record for 771390 (antisense e[5mC]*eG*eG*e[5mC]*eT*dG*d[5mC]*d[5mC]*d[5mC]*d[5mC]*dA*d[5mC]*d[5mC]*d[5mC]*d[5mC]*eG*e[5mC]*eG*e[5mC]*eG) [compound 771390] , report its % inhibition of SMAD7 mRNA expression.
result: 26

query: Requested read-out: % inhibition of SMAD7 mRNA expression. Entry: 771769 (antisense eG*eG*e[5mC]*eT*eG*dG*dG*dA*dA*dT*d[5mC]*dA*dG*dA*dA*e[5mC]*eT*eT*eG*eG) [compound 771769]
result: 3

query: Would you mind telling me what % inhibition of SMAD7 mRNA expression value was observed for 771663 (antisense eT*eT*e[5mC]*e[5mC]*eA*dA*dT*dG*dA*dG*dA*dA*dT*dG*d[5mC]*eT*eT*e[5mC]*eT*e[5mC]) [compound 771663] ?
result: 43

query: # input substance: 771570 (antisense eT*eG*eG*eG*eA*d[5mC]*dT*dG*d[5mC]*dA*dA*dA*d[5mC]*d[5mC]*dT*e[5mC]*eT*e[5mC]*eT*eG) [compound 771570] ; wanted: its % inhibition of SMAD7 mRNA expression
result: 43

query: Give the measured % inhibition of SMAD7 mRNA expression of 771900 (antisense eA*eT*eG*e[5mC]*e[5mC]*d[5mC]*dA*d[5mC]*d[5mC]*dA*dG*dT*d[5mC]*dT*dT*e[5mC]*e[5mC]*eT*eG*eA) [compound 771900] .
result: 8

query: Item 771634 (antisense eT*eG*eA*e[5mC]*eG*dG*dA*d[5mC]*d[5mC]*dA*dA*dA*dT*d[5mC]*d[5mC]*eT*eT*e[5mC]*eT*eT) [compound 771634] has what recorded % inhibition of SMAD7 mRNA expression?
result: 40
